tested target: ACSS2 (Homo sapiens, UniProt Q9NR19)
Sequence (Q9NR19 whole entry): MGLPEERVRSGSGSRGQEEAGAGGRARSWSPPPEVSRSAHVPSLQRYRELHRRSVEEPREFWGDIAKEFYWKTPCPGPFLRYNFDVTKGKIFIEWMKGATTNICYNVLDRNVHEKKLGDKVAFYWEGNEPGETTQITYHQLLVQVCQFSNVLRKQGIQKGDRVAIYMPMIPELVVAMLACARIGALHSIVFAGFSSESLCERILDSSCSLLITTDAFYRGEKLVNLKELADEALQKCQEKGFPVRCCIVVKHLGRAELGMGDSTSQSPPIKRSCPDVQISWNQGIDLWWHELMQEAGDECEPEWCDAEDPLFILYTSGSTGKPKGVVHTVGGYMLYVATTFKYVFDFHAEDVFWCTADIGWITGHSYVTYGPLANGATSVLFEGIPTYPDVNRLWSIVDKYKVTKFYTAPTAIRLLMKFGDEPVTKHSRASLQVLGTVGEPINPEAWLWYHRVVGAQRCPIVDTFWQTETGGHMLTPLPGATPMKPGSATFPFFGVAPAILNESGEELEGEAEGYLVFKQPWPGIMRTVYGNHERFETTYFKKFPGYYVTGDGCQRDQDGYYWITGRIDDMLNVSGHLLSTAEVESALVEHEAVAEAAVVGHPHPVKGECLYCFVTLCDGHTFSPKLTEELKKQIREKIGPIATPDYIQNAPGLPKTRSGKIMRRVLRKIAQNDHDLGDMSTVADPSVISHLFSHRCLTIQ
assay comment: cell-based
property: IC50

Consider the reported IC50 for these compounds:
1. CCC(=O)c1cccc(NC(=O)C2C(=O)N(c3ccccc3)N=C2C)c1 (stereo not shown) [compound 117] | 0.0005 to 0.05 µM
2. CC1=NN(c2cccc(C(=O)OC(C)C)c2)C(=O)C1C(=O)Nc1cccc(-c2cnccn2)c1 (stereo not shown) [compound 234] | > 0.1 µM

// for each compound below, give its IC50
1. CC1=NN(c2cccc(C(F)(F)F)c2)C(=O)C1C(=O)Nc1cccc(-c2ncc[nH]2)c1 (stereo not shown) [compound 149]
2. COc1cccc(N2N=C(C)C(C(=O)Nc3cccc(-c4ccco4)c3)C2=O)c1 (stereo not shown) [compound 247]
3. CC1=NN(c2ccc(OC3CCC3)cc2)C(=O)C1C(=O)Nc1cccc(C(C)(F)F)c1 (stereo not shown) [compound 325]
4. CC1=NN(c2cccc(C(=O)O)c2)C(=O)C1C(=O)Nc1cccc(-c2cnccn2)c1 (stereo not shown) [compound 169]
5. COC(=O)c1cccc(NC(=O)C2C(=O)N(c3ccccc3)N=C2C)c1 (stereo not shown) [compound 206]
6. CC1=NN(c2ccc(OC(F)F)cc2)C(=O)C1C(=O)Nc1cccc(C(C)(F)F)c1 (stereo not shown) [compound 298]
7. COc1ccc(N2N=C(C)C(C(=O)Nc3cccc(-c4ncc[nH]4)c3)C2=O)cn1 (stereo not shown) [compound 244]
8. CC1=NN(c2ccc(OC(F)F)c(-c3cnccn3)c2)C(=O)C1C(=O)Nc1cccc(C(C)(F)F)c1 (stereo not shown) [compound 328]

> 0.1 µM
0.0005 to 0.05 µM
0.0005 to 0.05 µM
> 0.1 µM
0.05 to 0.1 µM
0.0005 to 0.05 µM
> 0.1 µM
0.0005 to 0.05 µM

// for each compound below, give its IC50
1. CC1=NN(c2cccc(S(=O)(=O)N(C)C)c2)C(=O)C1C(=O)Nc1cccc(-c2ccco2)c1 (stereo not shown) [compound 263]
2. COc1ccc(N2N=C(C)C(C(=O)Nc3cccc(-c4cnccn4)c3)C2=O)cn1 (stereo not shown) [compound 243]
3. CC1=NN(c2ccc(OC3CCCCC3)cc2)C(=O)C1C(=O)Nc1cccc(C(C)(F)F)c1 (stereo not shown) [compound 322]
4. CC1=NN(c2ccc(OC(C)C)cc2)C(=O)C1C(=O)Nc1cccc(C(C)(F)F)c1 (stereo not shown) [compound 318]
5. COc1cccc(N2N=C(C)C(C(=O)Nc3cccc(-c4ncc[nH]4)c3)C2=O)c1 (stereo not shown) [compound 248]
6. CC1=NN(c2ccc(OC(F)F)c(-c3cncnc3)c2)C(=O)C1C(=O)Nc1cccc(C(C)(F)F)c1 (stereo not shown) [compound 316]

1. 0.0005 to 0.05 µM
2. > 0.1 µM
3. 0.0005 to 0.05 µM
4. 0.0005 to 0.05 µM
5. > 0.1 µM
6. 0.0005 to 0.05 µM

---

tested target: ACSS2 (Homo sapiens, UniProt Q9NR19)
assay comment: cell-based
pIC50: −log10 of the molar value.
What pIC50 was measured for each of the following?

Consider the reported pIC50 for these compounds:
1) CCC(C)Oc1ccc(N2N=C(C)C(C(=O)Nc3cccc(C(C)(F)F)c3)C2=O)cc1 (centres unmarked) | 7.30 to 9.30
2) CC1=NN(c2ccc(C3CC3)cc2)C(=O)C1C(=O)Nc1cccc(C(C)(F)F)c1 (centres unmarked) | 7.30 to 9.30
3) CC1=NN(c2ccc(S(=O)(=O)N(C)C)cc2)C(=O)C1C(=O)Nc1cccc(C(C)(F)F)c1 (centres unmarked) | 7.30 to 9.30
4) COc1ccc(N2N=C(C)C(C(=O)Nc3cccc(C(C)(F)F)c3)C2=O)c(C(C)(C)C)c1 (centres unmarked) | < 7.00
5) CC1=NN(c2cccc(C(=O)O)c2)C(=O)C1C(=O)Nc1cccc(C(C)(F)F)c1 (centres unmarked) | < 7.00

// for each compound below, give its pIC50
1. CCc1cccc(NC(=O)C2C(=O)N(c3ccc(OC(C)C)cc3)N=C2C)c1 (centres unmarked)
2. CC1=NN(c2cccc(-c3ncco3)c2)C(=O)C1C(=O)Nc1cccc(-c2cnccn2)c1 (centres unmarked)
3. CC1=NN(c2cccc(-c3ncc(C)o3)c2)C(=O)C1C(=O)Nc1cccc(C(C)(F)F)c1 (centres unmarked)

< 7.00
7.00 to 7.30
< 7.00

---

tested target: ACSS2 (Homo sapiens, UniProt Q9NR19)
assay comment: biochemical
pIC50: −log10 of the molar value.
What pIC50 was measured for each of the following?

// for each compound below, give its pIC50
1. CC1=NN(c2cccc(C(=O)OC(C)C)c2)C(=O)C1C(=O)Nc1cccc(-c2ncco2)c1 (centres unmarked)
2. CCc1cccc(NC(=O)C2C(=O)N(c3ccc(NC(C)=O)cc3)N=C2C)c1 (centres unmarked)
3. CC1=NN(c2cccc(-c3ncco3)c2)C(=O)C1C(=O)Nc1cccc(-c2ncc[nH]2)c1 (centres unmarked)
4. COC(=O)c1cccc(NC(=O)C2C(=O)N(c3ccccc3)N=C2C)c1 (centres unmarked)
5. CC1=NN(c2ccc(Br)cc2)C(=O)C1C(=O)Nc1cccc(C(C)(F)F)c1 (centres unmarked)
6. CCc1cccc(NC(=O)C2C(=O)N(c3ccccc3)N=C2c2ccccc2)c1 (centres unmarked)
7. CC1=NN(c2ccncc2)C(=O)C1C(=O)Nc1cccc(C(C)(F)F)c1 (centres unmarked)
8. CC1=NN(c2ccccc2)C(=O)C1C(=O)NC1CCOCC1 (centres unmarked)

["7.00 to 8.22", "6.00 to 7.00", "7.00 to 8.22", "8.22 to 11.00", "8.22 to 11.00", "4.00 to 6.00", "7.00 to 8.22", "4.00 to 6.00"]

---

tested target: ACSS2 (Homo sapiens)
assay comment: biochemical
What IC50 was measured for each of the following?

Consider the reported IC50 for these compounds:
1) CCC(C)Oc1ccc(N2N=C(C)C(C(=O)Nc3cccc(C(C)(F)F)c3)C2=O)cc1 (stereo not shown) | 0.01 to 6 nM
2) CC1=NN(c2ccccc2)C(=O)C1C(=O)N(C)c1ccccc1 (stereo not shown) | > 100000 nM
3) CC1=NN(c2cccc(C(F)(F)F)c2)C(=O)C1C(=O)Nc1cccc(-c2ncco2)c1 (stereo not shown) | 6 to 100 nM

// map CCOC(=O)c1cccc(NC(=O)C2C(=O)N(c3ccccc3)N=C2C)c1 (stereo not shown) to recorded IC50 (system: ACSS2 (Homo sapiens)) 6 to 100 nM

---

tested target: ACSS2 (Homo sapiens, UniProt Q9NR19)
assay comment: biochemical
property: IC50

Consider the reported IC50 for these compounds:
1. CC1=NN(c2ccc(OC(F)F)c(-c3nnc(C)o3)c2)C(=O)C1C(=O)Nc1cccc(C(C)(F)F)c1 (centres unmarked) [compound 429] | 0.01 to 6 nM
2. CC1=NN(c2ccc(OC(F)F)c(-c3ccccc3)c2)C(=O)C1C(=O)Nc1cccc(C(C)(F)F)c1 (centres unmarked) [compound 453] | 0.01 to 6 nM
3. CCCc1cc(-c2cccnc2)cc(N2N=C(C)C(C(=O)Nc3cccc(C(C)(F)F)c3)C2=O)c1 (centres unmarked) [compound 399] | 0.01 to 6 nM

// for each compound below, give its IC50
1. CC1=NN(c2ccccc2)C(=O)C1C(=O)Nc1ccc(S(=O)(=O)N(C)C)cc1 (centres unmarked) [compound 105]
2. CC1=NN(c2ccccc2)C(=O)C1C(=O)Nc1cscc1C (centres unmarked) [compound 283]

1: 1000 to 100000 nM; 2: 100 to 1000 nM

---

tested target: ACSS2 (Homo sapiens)
assay comment: biochemical
property: IC50

1) COc1ccc(N2N=C(C)C(C(=O)Nc3cccc(-c4ncc[nH]4)c3)C2=O)cn1 (stereo not shown) [compound 244] | 6 to 100 nM
2) CC1=NN(c2ccccc2)C(=O)C1C(=O)Nc1cccc(-c2ccco2)c1 (stereo not shown) [compound 108] | 0.01 to 6 nM
3) COc1ccc(N2N=C(C)C(C(=O)Nc3cccc(C(C)(F)F)c3)C2=O)cc1OC (stereo not shown) [compound 287] | 0.01 to 6 nM
4) CC1=NN(c2ccccc2)C(=O)C1C(=O)Nc1cccc(C(=O)C(F)(F)F)c1 (stereo not shown) [compound 152] | 1000 to 100000 nM

// for each compound below, give its IC50
1. CC1=NN(c2cc(Cc3ccccc3OCc3ccccc3)cc(-c3cccnc3)c2)C(=O)C1C(=O)Nc1cccc(C(C)(F)F)c1 (stereo not shown) [compound 365]
2. CC1=NN(c2cccnc2)C(=O)C1C(=O)Nc1ccccc1 (stereo not shown) [compound 195]
3. CC1=NN(c2ccccc2)C(=O)C1C(=O)NC1CCNCC1 (stereo not shown) [compound 121]
4. CC(=O)NS(=O)(=O)c1cc(N2N=C(C)C(C(=O)Nc3cccc(C(C)(F)F)c3)C2=O)ccc1OC(F)(F)F (stereo not shown) [compound 294]

["6 to 100 nM", "> 100000 nM", "1000 to 100000 nM", "6 to 100 nM"]

// for each compound below, give its IC50
1. CC1=NN(c2cc(Cc3ccccc3Cl)cc(-c3ccccc3)c2)C(=O)C1C(=O)Nc1cccc(C(C)(F)F)c1 (stereo not shown) [compound 333]
2. COc1ccc(N2N=C(C)C(C(=O)Nc3cccc(C(C)(F)F)c3)C2=O)cc1-c1cncnc1 (stereo not shown) [compound 442]
3. CC1=NN(c2ccc(OC(F)F)cc2)C(=O)C1C(=O)Nc1cccc(C(C)(F)F)c1 (stereo not shown) [compound 418]
4. COC(=O)c1cccc(N2N=C(C)C(C(=O)Nc3cccc(-c4ncc[nH]4)c3)C2=O)c1 (stereo not shown) [compound 167]
5. Cc1nn(-c2ccc(OC(F)F)cc2)cc1C(=O)Nc1cccc(C(C)(F)F)c1 [compound 338]
6. CC1=NN(c2ccc(OC(F)F)c(-c3cncnc3)c2)C(=O)C1C(=O)Nc1cccc(C(C)(F)F)c1 (stereo not shown) [compound 449]
7. CC1=NN(c2ccc(OC(F)F)cc2)C(=O)C1C(=O)Nc1cccc(C(C)(F)C(C)C)c1 (stereo not shown) [compound 409]
8. COC(=O)c1cccc(N2N=C(C)C(C(=O)Nc3cccc(-c4cnccn4)c3)C2=O)c1 (stereo not shown) [compound 164]

6 to 100 nM
0.01 to 6 nM
100 to 1000 nM
0.01 to 6 nM
6 to 100 nM
0.01 to 6 nM
100 to 1000 nM
0.01 to 6 nM
